Hello, the source for this data is PubChem BioAssay AID1159580, in case you need it.

Assay: chemical genetic growth profiling, strain panel (AID 1159580);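 also: tested at 20 µM; growth read once vehicle control cultures reached saturation at 30 °C; 1 = growth at the plate median or of vehicle wells; lower values mean less growth of the strain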
Settings: S. cerevisiae deletion strains, growth OD, locus YNL197C, strain WHI3, hits give low values
The whole screen tested about 5,500 compounds, of which about 2,000 (36%) were called active. Roughly 18% stayed inconclusive and do not appear here. This is one part of the list.
With a cut-off of 1, any normalized growth strictly below it is called MET; any normalized growth meeting it or above is called NOT MET.

Threshold test, normalized growth < 1: Cc1ccc(N(CC2=NCCN2)c2cccc(O)c2)cc1
NOT MET

Is 1 strictly greater than the molecule's reported normalized growth? molecule: CCc1cccc2c3c([nH]c12)C(CC)(CC(=O)O)OCC3 (stereo not drawn)
MET

Does COc1ccccc1N1CCN(CC(O)COc2cccc3ccccc23)CC1 (stereo not drawn) have normalized growth strictly under 1?
NOT MET

Please state whether normalized growth is below 1 for c1cc(CN2CCCCC2)cc(OCCCNc2nc3ccccc3s2)c1
NOT MET

----------
Assay: chemical genetic growth profiling, strain panel (AID 1159580);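 also: tested at 20 µM; growth read once vehicle control cultures reached saturation at 30 °C; 1 = growth at the plate median or of vehicle wells; lower values mean less growth of the strain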
Conditions: S. cerevisiae deletion strains, growth OD, locus YJL166W, strain qcr8, hits give low values
Among all 5,500 compounds or so, about 2,000 (36%) were called active. Inconclusive results (about 18%) are left out. This is one part of the list.
RECORDED_ENDPOINT: normalized growth
Hey, just send me the number, nothing else.

The compound listed as OC(c1cc(C(F)(F)F)nc2c(C(F)(F)F)cccc12)C1CCCCN1 (stereo unspecified) shows normalized growth equal to 1.02

normalized growth in this record for CC(=O)OC1CCC2(C)C3CC(=O)C4(C)C(CC5OC6(CCC(C)CO6)[C@@H](C)C54)C3CC[C@H]2C1 (stereo partly specified) : 0.965

Lookup result for COc1cccc(OC)c1C(=O)N[C@@H]1C(=O)N2[C@@H]1SC(C)(C)[C@@H]2C(=O)O ; measured normalized growth: 0.97

Record O=C(OC[C@H]1O[C@H](OC(=O)c2cc(O)c(O)c(OC(=O)c3cc(O)c(O)c(O)c3)c2)[C@H](OC(=O)c2cc(O)c(O)c(OC(=O)c3cc(O)c(O)c(O)c3)c2)[C@@H](OC(=O)c2cc(O)c(O)c(OC(=O)c3cc(O)c(O)c(O)c3)c2)[C@@H]1OC(=O)c1cc(O)c(O)c(OC(=O)c2cc(O)c(O)c(O)c2)c1)c1cc(O)c(O)c(OC(=O)c2cc(O)c(O)c(O)c2)c1 . Reported normalized growth: 0.839

normalized growth reported for this compound C#C[C@]1(O)CCC2C3CCC4=Cc5oncc5C[C@]4(C)C3CC[C@@]21C (stereo partly specified) : 0.899

// recorded normalized growth for CNS(=O)(=O)c1ccc(NC(=O)c2ccccc2C(=O)O)cc1 : 0.998

The reported normalized growth of the compound Cc1onc(-c2c(Cl)cccc2Cl)c1C(=O)N[C@@H]1C(=O)N2[C@@H]1SC(C)(C)[C@@H]2C(=O)O was 0.957

For record CC(=O)CC1CCCCN1 (stereo unspecified) the listed normalized growth is 1.03

Form field normalized growth, entry O=C(O)[C@H](O)[C@@](O)(Cc1ccc(O)cc1)C(=O)O : 1.01

Reported normalized growth ( NC1C[C@H]1c1ccccc1 (stereo partly specified) ) = 1.01

For record CC(=O)NS(=O)(=O)c1ccc(NC(=O)c2ccccc2C(=O)O)cc1 the listed normalized growth is 1.02

Lab note: CCc1cccc2c3c([nH]c12)C(CC)(CC(=O)O)OCC3 (stereo unspecified) gave normalized growth of 0.984

For CC(=O)Oc1cccc2c1C(=O)c1c(OC(C)=O)cc(C(=O)O)cc1C2=O the compound record lists normalized growth as 0.871

compound Cc1ccc(N(CC2=NCCN2)c2cccc(O)c2)cc1 , normalized growth observed: 0.993

normalized growth recorded for this compound, C[C@]12CCC3C(CC[C@H]4C[C@H](OS(=O)(=O)O)CC[C@]34C)C1CCC2=O (stereo partly specified) , is 1.05

Field normalized growth (entry Cc1onc(-c2ccccc2)c1C(=O)NC1C(=O)N2[C@@H]1SC(C)(C)[C@@H]2C(=O)O (stereo partly specified) ) reads 1.03

For record CCCCc1nc(Cl)c(CO)n1Cc1ccc(-c2ccccc2-c2nn[nH]n2)cc1 the listed normalized growth is 0.98

Record summary for C[C@]12CCC(=O)C=C1CCC1C2[C@@H](O)C[C@@]2(C)C1CC[C@]2(O)C(=O)COC(=O)CCC(=O)O (stereo partly specified) : reported normalized growth = 1

Input CC(=O)Oc1ccccc1C(=O)O . Output normalized growth: 1.01

Per the records, this compound ( COc1cc2c(cc1OC)[C@@H]1C(=O)c3ccc4c(c3O[C@@H]1CO2)CC(C(C)C)O4 (stereo partly specified) ) has normalized growth equal to 0.934

Per the record, COc1cnc(NS(=O)(=O)c2ccc(N)cc2)nc1 has normalized growth of 1.01

# compound COc1ccc2c(=O)ccoc2c1 ; its normalized growth = 1.02

Form field normalized growth, entry O=C(NC1CCCCC1)NC1CCCCC1 : 0.985

The compound listed as Cc1onc(-c2ccccc2Cl)c1C(=O)N[C@@H]1C(=O)N2[C@@H]1SC(C)(C)[C@@H]2C(=O)O shows normalized growth equal to 1.03

So for O=C(O)c1cc(=O)c2cccc(O)c2[nH]1 , the logged normalized growth turned out to be 0.996

The measured normalized growth associated with COc1c2ccoc2cc2oc(C)cc(=O)c12 reads 0.984

The recorded normalized growth for entry C=C(C)[C@H]1Cc2c(ccc3c2O[C@@H]2COc4cc(OC)c(OC)cc4[C@@H]2C3=O)O1 equals 0.932

Memo: C#CC1(O)CCC2C3CCC4=CC(=O)CCC4(C)C3CCC21C (stereo unspecified) , reported normalized growth: 0.983

# compound CN1CCN(CC(=O)N2c3ccccc3C(=O)Nc3cccnc32)CC1 ; its normalized growth = 1.03

// Cc1cc(C(C)(C)C)c(O)c(C)c1CC1=NCCN1 : normalized growth value = 1.01

normalized growth reported for this compound CC(=O)O[C@@H]1CC[C@]2(C)C3CC[C@]4(C)C(=O)CCC4C3CC[C@H]2C1 (stereo partly specified) : 0.922

Looking up CC(=O)O[C@H]1CC[C@]2(C)C3CC[C@@]4(C)C(CC5O[C@@]6(CCC(C)CO6)[C@@H](C)C54)C3CC[C@@H]2C1 (stereo partly specified) , I found its normalized growth recorded as 1.01

// sample CC(=O)OC[C@H]1O[C@@H](Oc2cc(OC(C)=O)c3c(=O)cc(-c4ccc(OC(C)=O)cc4)oc3c2)[C@H](OC(C)=O)[C@@H](OC(C)=O)[C@@H]1OC(C)=O , its normalized growth was 0.989

Note to self: normalized growth recorded for CC1(C)S[C@@H]2[C@H](NC(=O)[C@H](C(=O)O)c3cccs3)C(=O)N2[C@H]1C(=O)O was 1.01

normalized growth reading for Cc1cc(C(C)(C)C)cc(C)c1CC1=NCCN1 : 1.03

normalized growth measured on C[C@]12CCC(=O)C=C1CCC1C2C(=O)C[C@@]2(C)C1CC[C@]2(O)C(=O)CO (stereo partly specified) = 0.987

----------
Assay: chemical genetic growth profiling, strain panel (AID 1159580);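 also: tested at 20 µM; growth read once vehicle control cultures reached saturation at 30 °C; 1 = growth at the plate median or of vehicle wells; lower values mean less growth of the strain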
Conditions: S. cerevisiae deletion strains, growth OD, locus YNL298W, strain CLA4
The campaign covered roughly 5,500 compounds. About 2,000 (36%) were called active. Inconclusive results (about 18%) are left out. Cut-off read from the data, not from the text of the source: active = normalized growth mostly below about 0.91 (no sharp cut-off); inconclusive = no clear call, values can overlap the other calls; inactive = mostly above about 0.92. The list shows a part of the results.
# output must be one of active, inactive

Dear colleague, could you share the recorded outcome for CCCCCCCCCCCCCCCCCCOCC(O)CO (configuration not stated) when you have a moment?
inactive

For NC[C@H]1O[C@H](O[C@H]2[C@H](O)[C@@H](O[C@H]3O[C@H](CO)[C@@H](O)[C@H](N)[C@H]3O)[C@H](N)C[C@@H]2N)[C@H](N)C[C@@H]1O , which call appears in the assay record?
inactive

Answer briefly: the call reported for COc1ccc(C2C(=O)c3ccccc3C2=O)cc1 in this assay.
inactive

Which outcome was assigned to CNC(Cc1c[nH]c2ccccc12)C(=O)O (configuration not stated) in this test?
inactive

Each molecule tested received a call. Report the one for O=C(O)c1cc([N+](=O)[O-])ccc1NCCCc1ccccc1 .
active

Hello, I am checking results. What call was entered for CCNc1nc(Cl)nc(NCC)n1 ?
inactive

Returns: the outcome recorded for CCc1cccc2c3c([nH]c12)C(CC)(CC(=O)O)OCC3 (configuration not stated) in this assay.
inactive

Can you look up the reported call for COc1cc(-c2oc3cc(O)ccc3c(=O)c2O)cc(OC)c1OC for me?
inactive

Dear all, I need the recorded test outcome for O=c1c(O)c(-c2ccc(O)c(O)c2)oc2cc(O)ccc12 , thank you.
inactive

Outcome logged for NC1C[C@H]1c1ccccc1 (some centres not stated) in this assay:
inactive

Field: outcome | Entry: CC(=O)[O][Hg][c]1ccccc1
active

What did this assay record as the result for NCCc1c[nH]c2ccccc12 ?
inactive
